# test.target: EGFR exon 20 NPG Ins D770_N771 (Ba/F3 cells) (Homo sapiens, UniProt P00533, INS770NPG)
# Construct: expressed in transfected cells; host or cells: Ba/F3 (murine pro-B cells), retroviral transduction, puromycin selection, IL3-independent pool
# Sequence (P00533 with tags, fused parts or gaps INS770NPG): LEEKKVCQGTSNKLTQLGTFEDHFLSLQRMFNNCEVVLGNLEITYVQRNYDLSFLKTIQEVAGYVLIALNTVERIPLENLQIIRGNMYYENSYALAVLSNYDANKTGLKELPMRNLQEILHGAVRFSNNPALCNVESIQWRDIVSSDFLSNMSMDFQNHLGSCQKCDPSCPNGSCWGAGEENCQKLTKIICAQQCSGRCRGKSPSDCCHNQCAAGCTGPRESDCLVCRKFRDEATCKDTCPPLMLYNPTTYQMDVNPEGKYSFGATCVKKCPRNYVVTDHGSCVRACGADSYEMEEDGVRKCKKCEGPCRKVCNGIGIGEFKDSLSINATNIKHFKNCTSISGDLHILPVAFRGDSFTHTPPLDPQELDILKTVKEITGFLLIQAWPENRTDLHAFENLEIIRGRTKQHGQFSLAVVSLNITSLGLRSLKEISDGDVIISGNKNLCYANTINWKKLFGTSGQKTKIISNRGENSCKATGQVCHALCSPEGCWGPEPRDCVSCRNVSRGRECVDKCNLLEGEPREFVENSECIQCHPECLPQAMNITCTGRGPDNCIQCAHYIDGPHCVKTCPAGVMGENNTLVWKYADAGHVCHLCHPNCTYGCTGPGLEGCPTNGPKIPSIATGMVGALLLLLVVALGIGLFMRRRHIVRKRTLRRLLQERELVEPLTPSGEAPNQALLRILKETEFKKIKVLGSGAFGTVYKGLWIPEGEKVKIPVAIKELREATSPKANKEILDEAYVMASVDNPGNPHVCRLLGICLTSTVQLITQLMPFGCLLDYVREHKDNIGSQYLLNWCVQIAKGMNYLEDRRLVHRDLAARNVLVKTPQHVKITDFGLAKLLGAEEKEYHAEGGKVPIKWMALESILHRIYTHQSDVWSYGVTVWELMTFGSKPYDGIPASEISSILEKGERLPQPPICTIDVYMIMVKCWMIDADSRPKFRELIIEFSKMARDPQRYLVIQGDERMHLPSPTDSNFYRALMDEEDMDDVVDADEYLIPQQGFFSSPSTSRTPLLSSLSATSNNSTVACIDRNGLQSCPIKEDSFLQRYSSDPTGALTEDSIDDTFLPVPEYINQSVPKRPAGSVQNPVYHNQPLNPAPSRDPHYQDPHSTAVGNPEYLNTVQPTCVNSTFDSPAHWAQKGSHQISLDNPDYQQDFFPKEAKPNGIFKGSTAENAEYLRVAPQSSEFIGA
# assay.text: Inhibitor activity on EGFR-dependent cell growth (CellTiter-Glo, 72 h), Ba/F3 EGFR exon 20 NPG Ins
# Assay type: cell-based
# test.settings: read-out: BaF3 NPG IC50
quantity.name: IC50

[
  {
    "smiles.input": "CCc1c(Cl)cccc1Nc1c(-c2ccnc(N)n2)[nH]c2c1C(=O)NCC2",
    "IC50": "100 to 1000 nM"
  },
  {
    "smiles.input": "C=CC(=O)N1CCC(Oc2nc3c(-c4[nH]c5c(c4Nc4cccc(F)c4OC)C(=O)NCC5)ccnc3cc2OC)CC1",
    "IC50": "< 100 nM"
  },
  {
    "smiles.input": "COc1c(F)cccc1Nc1c(-c2ccncn2)[nH]c2c1C(=O)NC[C@@H]2C[C@@H]1COCCO1",
    "IC50": "100 to 1000 nM"
  },
  {
    "smiles.input": "COc1ccc2nccc(-c3[nH]c4c(c3Nc3cccc(F)c3C)C(=O)NCC4)c2n1",
    "IC50": "< 100 nM"
  },
  {
    "smiles.input": "COc1c(Cl)cccc1Nc1c(-c2ccnc(NC[C@@H]3CCCO3)n2)[nH]c2c1C(=O)NCC2",
    "IC50": "> 1000 nM"
  }
]

response.value for COc1c(Cl)cccc1Nc1c(-c2ccnc3c2OCCN3)[nH]c2c1C(=O)NCC2 (field: IC50) = 100 to 1000 nM

// IC50 lookup, compound = COc1c(Cl)cccc1Nc1c(-c2ccnc3[nH]cnc23)[nH]c2c1C(=O)NCC2 , result: 100 to 1000 nM

# IC50 of COc1c(Cl)cccc1Nc1c(-c2ncnc3[nH]ccc23)[nH]c2c1C(=O)NCC2 = > 1000 nM

The reported IC50 of the compound COc1c(Cl)cccc1Nc1c(-c2ccnc3ccoc23)[nH]c2c1C(=O)NCC2 was < 100 nM

The measured IC50 associated with COc1c(F)cccc1Nc1c(-c2ncnc3cccnc23)[nH]c2c1C(=O)NCC2 reads > 1000 nM

---

# test.target: EGFR WT (Ba/F3 cells) (Homo sapiens, UniProt P00533)
# Sequence (P00533 25-1210): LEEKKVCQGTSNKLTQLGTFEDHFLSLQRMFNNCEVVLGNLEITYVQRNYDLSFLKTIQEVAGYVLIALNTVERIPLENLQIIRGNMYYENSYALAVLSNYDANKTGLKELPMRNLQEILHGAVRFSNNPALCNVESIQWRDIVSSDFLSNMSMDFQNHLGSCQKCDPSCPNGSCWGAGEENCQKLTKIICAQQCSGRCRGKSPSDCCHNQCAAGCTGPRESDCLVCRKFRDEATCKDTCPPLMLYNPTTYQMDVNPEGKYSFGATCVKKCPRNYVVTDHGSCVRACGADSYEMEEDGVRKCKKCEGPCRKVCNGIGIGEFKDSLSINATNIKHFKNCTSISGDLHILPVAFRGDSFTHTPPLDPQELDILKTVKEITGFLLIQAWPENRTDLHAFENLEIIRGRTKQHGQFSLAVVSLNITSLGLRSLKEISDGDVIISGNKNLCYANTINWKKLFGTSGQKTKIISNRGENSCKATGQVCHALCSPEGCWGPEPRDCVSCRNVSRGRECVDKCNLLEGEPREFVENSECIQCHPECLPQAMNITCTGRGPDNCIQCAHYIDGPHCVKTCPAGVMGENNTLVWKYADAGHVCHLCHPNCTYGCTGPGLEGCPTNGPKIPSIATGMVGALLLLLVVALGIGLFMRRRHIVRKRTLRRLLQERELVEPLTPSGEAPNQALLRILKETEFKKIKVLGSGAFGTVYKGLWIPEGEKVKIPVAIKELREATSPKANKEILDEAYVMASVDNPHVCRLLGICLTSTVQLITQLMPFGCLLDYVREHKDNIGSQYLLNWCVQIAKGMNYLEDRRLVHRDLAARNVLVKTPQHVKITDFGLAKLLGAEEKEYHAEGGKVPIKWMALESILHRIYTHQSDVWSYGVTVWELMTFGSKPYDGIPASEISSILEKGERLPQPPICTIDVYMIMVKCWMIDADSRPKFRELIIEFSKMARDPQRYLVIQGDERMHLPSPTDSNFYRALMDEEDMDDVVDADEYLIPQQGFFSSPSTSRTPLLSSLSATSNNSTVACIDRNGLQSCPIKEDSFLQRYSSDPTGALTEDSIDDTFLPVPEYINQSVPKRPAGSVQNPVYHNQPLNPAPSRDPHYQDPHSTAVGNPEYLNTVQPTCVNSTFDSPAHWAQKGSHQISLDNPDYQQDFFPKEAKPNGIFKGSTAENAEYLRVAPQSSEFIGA
# assay.text: Inhibitor activity on EGFR-dependent cell growth (CellTiter-Glo, 72 h), Ba/F3 EGFR WT
# test.settings: read-out: BaF3 WT IC50
pIC50: −log10 of the molar value.
# maps each entry to its pIC50

Use these answered entries as a reference point.
[
  {
    "compound": "COc1ccc2nccc(-c3[nH]c4c(c3Nc3cccc(Cl)c3OC)C(=O)NCC43CC3)c2n1",
    "pIC50": "6.00 to 7.00"
  },
  {
    "compound": "COc1c(F)cccc1Nc1c(-c2ccnc(C)n2)[nH]c2c(C[C@@H]3COCCO3)c[nH]c(=O)c12",
    "pIC50": "6.00 to 7.00"
  },
  {
    "compound": "COc1c(F)cccc1Nc1c(-c2ccnc3ccc(NC4(C)CC4)nc23)[nH]c2c1C(=O)NCC2",
    "pIC50": "> 7.00"
  },
  {
    "compound": "COc1c(F)cccc1Nc1c(-c2ccncn2)[nH]c2c1C(=O)NCC2C[C@H]1COCCO1 (single isomer, unassigned) [Compound 530]",
    "pIC50": "6.00 to 7.00"
  },
  {
    "compound": "Nc1nccc(-c2[nH]c3c(c2Nc2cccc(Cl)c2)C(=O)NCC3)n1",
    "pIC50": "6.00 to 7.00"
  }
]

Now, please, on to the next compound.
Entry COc1c(F)cccc1Nc1c(-c2ncnc3cccnc23)[nH]c2c1C(=O)NCC2 ; pIC50 = > 7.00
